target: cloned human dopamine D3 receptors (Homo sapiens, UniProt P35462); construct: expressed in transfected cells; membrane homogenate; assay: [N-Methyl-3H]Spiroperidol binding to cloned human dopamine D3 receptors (Protocol 1); settings: the 14th table; read-out: D3 Ki
Sequence (P35462 whole entry): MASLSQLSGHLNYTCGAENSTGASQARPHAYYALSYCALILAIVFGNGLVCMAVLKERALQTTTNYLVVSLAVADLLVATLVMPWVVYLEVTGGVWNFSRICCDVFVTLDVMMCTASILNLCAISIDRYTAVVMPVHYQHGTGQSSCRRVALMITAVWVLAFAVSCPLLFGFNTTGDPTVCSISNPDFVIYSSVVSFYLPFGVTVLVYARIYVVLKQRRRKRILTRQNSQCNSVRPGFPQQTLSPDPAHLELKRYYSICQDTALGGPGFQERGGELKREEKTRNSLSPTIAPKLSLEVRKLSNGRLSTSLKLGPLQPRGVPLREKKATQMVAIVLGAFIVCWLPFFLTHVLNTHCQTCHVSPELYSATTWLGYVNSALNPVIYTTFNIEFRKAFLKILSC
pKi: −log10 of the molar value.
Quantity: pKi

Cn1c(C(=O)NCCCCCN2CCN(c3csc4cc(C(F)(F)F)ccc34)CC2)cc2ccccc21 [compound 826796]: 7.83
O=C(NCCCCCN1CCN(c2csc3cc(F)ccc23)CC1)c1cccc(F)c1 [compound 826782]: 8.34
O=C(NCCCCCN1CCN(c2csc3cc(F)ccc23)CC1)c1c[nH]c2ccccc12 [compound 826787]: 8.92
COc1cc(OC)cc(C(=O)NCCCCCN2CCN(c3csc4cc(C(F)(F)F)ccc34)CC2)c1 [compound 826766]: 7.96
O=C(NCCCCCN1CCN(c2csc3cc(F)ccc23)CC1)c1ccc2cc[nH]c2c1 [compound 826790]: 8.25

(P) O=C(NCCCCN1CCN(c2c(-c3ccccc3)sc3cc(F)ccc23)CC1)c1ccc(C(F)(F)F)cc1 [compound 815871]
(Q) O=C(NCCCCCCN1CCN(c2csc3cc(C(F)(F)F)ccc23)CC1)c1ccc2[nH]ccc2c1 [compound 816316]
(R) COc1ccc2[nH]c(C(=O)NCCCCCCN3CCN(c4csc5cc(C(F)(F)F)ccc45)CC3)cc2c1 [compound 826738]
Input line: Number of molecules to sort: 3. Sort criterion: pKi, ascending. To answer, write out the labels according to the requested order.
Output line: P, R, Q
(P: 6.10, R: 8.21, Q: 8.57)

* * *

target: cloned human dopamine D3 receptors (Homo sapiens, UniProt P35462); construct: expressed in transfected cells; membrane homogenate; experiment: [N-Methyl-3H]Spiroperidol binding to cloned human dopamine D3 receptors (Protocol 1); settings: the 18th table; read-out: D3 Ki
pKi: −log10 of the molar value.
Quantity: pKi

Some solved cases for reference:
O=C(NCc1sccc1CN1CCN(c2csc3cc(F)ccc23)CC1)c1ccc2ccccc2c1 [compound 826300]: 7.44
CC(C)(C)c1ccc(C(=O)NCc2sccc2CN2CCN(c3csc4cc(F)ccc34)CC2)cc1 [compound 826309]: 7.20
O=C(NCc1sccc1CN1CCN(c2csc3cc(F)ccc23)CC1)c1sccc1-n1cccc1 [compound 826318]: 7.05
CS(=O)(=O)c1sc(C(=O)NCc2sccc2CN2CCN(c3csc4cc(F)ccc34)CC2)c2c1C=CCC2 [compound 826315]: 7.51

(a) O=C(NCc1sccc1CN1CCN(c2csc3cc(F)ccc23)CC1)c1cnc2ccccc2n1 [compound 826310]
(b) O=C(NCc1sccc1CN1CCN(c2csc3cc(F)ccc23)CC1)c1cc2ccccc2s1 [818321G]
(c) O=C(NCc1sccc1CN1CCN(c2csc3cc(F)ccc23)CC1)c1ccc2[nH]ccc2c1 [compound 826327]
(d) COc1cccc(C(=O)NCc2sccc2CN2CCN(c3csc4cc(F)ccc34)CC2)c1 [compound 826307]
Input line: Thanks in advance: please rank these 4 entries by pKi, highest to lowest. To answer, write out the labels according to the requested order.
Output line: c, d, b, a
(c: 7.70, d: 7.33, b: 7.10, a: 6.69)

* * *

biological target: cloned human dopamine D3 receptors (Homo sapiens, UniProt P35462); construct: expressed in transfected cells; membrane homogenate; test: [N-Methyl-3H]Spiroperidol binding to cloned human dopamine D3 receptors (Protocol 1); conditions: the 18th table; read-out: D3 Ki
pKi: −log10 of the molar value.
Quantity: pKi

Cc1nn(C)c2sc(C(=O)NCc3sccc3CN3CCN(c4csc5cc(F)ccc45)CC3)cc12 [compound 826321]: 7.38
O=C(NCc1sccc1CN1CCN(c2csc3cc(F)ccc23)CC1)c1cc2sccc2s1 [compound 826320]: 7.12
O=C(NCc1sccc1CN1CCN(c2csc3cc(F)ccc23)CC1)c1n[nH]c2ccccc12 [compound 826329]: 7.85

(P) O=C(NCc1sccc1CN1CCN(c2csc3cc(F)ccc23)CC1)c1cc2ccccc2o1 [compound 826331]
(Q) O=C(NCc1sccc1CN1CCN(c2csc3cc(F)ccc23)CC1)c1cc(-c2ccco2)nc2ccccc12 [compound 826319]
(R) O=C(NCc1sccc1CN1CCN(c2csc3cc(F)ccc23)CC1)c1cccc2ccccc12 [compound 826299]
Input line: Thanks in advance: please rank these 3 entries by pKi, highest to lowest. To answer, write out the labels according to the requested order.
Output line: P, R, Q

These data points were gathered from patent US7550469B2.
